The measurements presented in this section are drawn from patent US20240336683A1.

# system: T1, human Siglec15-Fc fusion protein (human, UniProt Q6ZMC9 20-263)
# T1 construct: Bought protein (Acro #SG5-H5253 is named for the selection); also called recombinant Siglec 15-Fc fusion protein (Acro #SG5-H5253); human Siglec15-Fc protein; not shown: Fc part of the bought fusion protein
# T1 sequence (looked up): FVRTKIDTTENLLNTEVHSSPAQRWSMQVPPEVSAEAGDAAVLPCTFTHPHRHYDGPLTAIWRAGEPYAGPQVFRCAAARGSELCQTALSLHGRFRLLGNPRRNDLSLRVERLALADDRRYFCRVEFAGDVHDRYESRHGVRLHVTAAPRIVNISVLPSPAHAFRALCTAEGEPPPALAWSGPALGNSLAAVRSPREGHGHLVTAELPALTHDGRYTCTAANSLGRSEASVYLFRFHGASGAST
# test-protocol: SPR Biacore T200; Siglec15-Fc captured on Protein A chip, scFv as analyte
pKd: −log10 of the molar value.
observation-type: pKd

binder	reading
2020EP085-G5 scFv (scFv, V domains shown, Tested as a single-chain scFv made in E. coli with a C-terminal flag and 6x His tag) VH: QVQLVQSGAEVKKPGASVKVSCKASGYTFTDYYMHWVRQAPGQGLEWMGWINPNSGGTNYAQKFQGRVTMTRDTSITTAYMELSWLRSDDTAVYYCAREVGTTTTGVDYWGQGTLVTVSS VL: VIWMTQSPSSLSASVGDRVTFTCQASQDINIYLTWYQIKPGKAPKVLIYDASTLESGVPSRFSGSGFGTHFVFTISSLQPEDFATYYCQHYDSLPLTFGGGTKVEIK	7.96
2020EP032-C09 scFv (scFv, V domains shown, Tested as a single-chain scFv made in E. coli with a C-terminal flag and 6x His tag) VH: QVQLVESGGGLVKPGGSLRLSCAASGFSFNNAWMSWVRQAPGKGLEWVGRIKSKTDDATTEYAAPVEGRFTISRDDSKNMLYLQMDSLKTEDTAVYYCTTDLRWEELPMYWGQGTLVTVSS VL: VIWMTQSPSSLSASVGDRVTITCRASQGIRNDLGWYQQKPGKAPKVLIYAASSLQSGVPSRFSGSGSGTDFTLTISSLQPEDFATYYCLQDYNYPQTFGQGTKVGIKR	7.60
